We begin with a simple list: items and their reported CC50 at 72 h.
- PROTOCOL: Cytotoxicity against human HeLa cells assessed as decrease in cell viability after 72 hrs by MTT assay
- Type: cell-based
Please give a number only; it is taken to be in µM.

Would you please look over these solved cases?
[[record]]
compound = "C/C=C(/C)C(=O)OC/C=C/c1ccc(OC)cc1"
reported_property = "CC50 at 72 h"
number = 248

[[record]]
compound = "CC(C)CC(=O)OC/C=C/c1ccccc1"
reported_property = "CC50 at 72 h"
number = 142

[[record]]
compound = "Cc1cc(CCCOc2c(C)cc(-c3noc(C(F)(F)F)n3)cc2C)on1"
reported_property = "CC50 at 72 h"
number = 131


As a next step, examine the compound that follows.
Fill in the blank: the reported CC50 at 72 h of C/C=C(/C)C(=O)OC/C(=C/C)C(=O)OC/C=C/c1ccc(OC)cc1 is ____.
36.3
